This collection of values is drawn from patent US20170002074A1.

# EC50 per record follows
Biological target: T1, Human CD33 (human, UniProt P20138 18-364)
T1 construct: One molecule is used for recombinant CD33 on HEK293AD/293 cells and for endogenous human CD33 on tumor or myeloid cells; the cell is named under assay; also called huCD33; hu CD33
T1 sequence (P20138 18-364): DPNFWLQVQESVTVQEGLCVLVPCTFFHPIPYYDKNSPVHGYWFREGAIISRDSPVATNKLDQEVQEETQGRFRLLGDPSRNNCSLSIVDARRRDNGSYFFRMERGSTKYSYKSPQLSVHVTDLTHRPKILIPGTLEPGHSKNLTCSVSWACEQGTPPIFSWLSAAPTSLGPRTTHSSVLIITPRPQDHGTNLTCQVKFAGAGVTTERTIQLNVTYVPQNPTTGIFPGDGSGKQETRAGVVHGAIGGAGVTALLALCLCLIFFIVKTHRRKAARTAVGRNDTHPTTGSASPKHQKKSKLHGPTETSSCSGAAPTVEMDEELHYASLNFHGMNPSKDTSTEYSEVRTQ
Test: FACS titration on EOL-1 cells (endogenous huCD33), geometric mean fluorescence, 0.1-10 µg/ml antibody
Your answer is read as µg/mL, so omit the unit and give the number.

| binder | units.symbol | EC50 |
| --- | --- | --- |
| 9C3.3 (antibody, V domains shown, Variant of 9C3 with the heavy chain N-glycosylation site removed) VH: EVQLVESGGALIQPGGSLRLSCVASGFTISGNYMSWVRQAPGKGLEWVSLIYSGDSTYYADSVKGRFSISRDISKNTVYLQMNSLRVEDTAVYYCVRDGYYVSDMVVWGKGTTVTVSS VL: DIQMTQSPSSLSASVGDRVTITCRASQGIRNDLGWYQQKPGKAPKRLIYAASSLQSGVPSRFSGSGSGTEFTLTISSLQPEDFATYYCLQHNSYPWTFGQGTKLEIK | µg/mL | 0.42 |
| 9C3.2 (antibody, V domains shown, Variant of 9C3 with the heavy chain N-glycosylation site removed) VH: EVQLVESGGALIQPGGSLRLSCVASGFTISGNYMSWVRQAPGKGLEWVSLIYSGDSTYYADSVKGRFTISRDISKNTVYLQMNSLRVEDTAVYYCVRDGYYVSDMVVWGKGTTVTVSS VL: DIQMTQSPSSLSASVGDRVTITCRASQGIRNDLGWYQQKPGKAPKRLIYAASSLQSGVPSRFSGSGSGTEFTLTISSLQPEDFATYYCLQHNSYPWTFGQGTKLEIK | µg/mL | 0.46 |
| 9C3.4 (antibody, V domains shown, Variant of 9C3 with the heavy chain N-glycosylation site removed) VH: EVQLVESGGALIQPGGSLRLSCVASGFTISGNYMSWVRQAPGKGLEWVSLIYSGDSTYYADSVKGRFAISRDISKNTVYLQMNSLRVEDTAVYYCVRDGYYVSDMVVWGKGTTVTVSS VL: DIQMTQSPSSLSASVGDRVTITCRASQGIRNDLGWYQQKPGKAPKRLIYAASSLQSGVPSRFSGSGSGTEFTLTISSLQPEDFATYYCLQHNSYPWTFGQGTKLEIK | µg/mL | 0.23 |

Query :: State the recorded EC50 for this entry: 9C3 (antibody, V domains shown, atypical N-linked glycosylation site in the heavy chain between CDR2 and CDR3 at position 69 (kabat #)) VH: EVQLVESGGALIQPGGSLRLSCVASGFTISGNYMSWVRQAPGKGLEWVSLIYSGDSTYYADSVKGRFNISRDISKNTVYLQMNSLRVEDTAVYYCVRDGYYVSDMVVWGKGTTVTVSS VL: DIQMTQSPSSLSASVGDRVTITCRASQGIRNDLGWYQQKPGKAPKRLIYAASSLQSGVPSRFSGSGSGTEFTLTISSLQPEDFATYYCLQHNSYPWTFGQGTKLEIK
Result :: 0.54
